Exercise: state measured Kd for each of the binders provided.
testedOn: T1, V domain of human CD33 (human, UniProt P20138 18-139, limits assumed)
T1 construct: recombinant, fully glycosylated V domain; also called Human CD33 V domain
testDetails: SPR, Fab captured, 37C;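 also: biacore 8K surface plasmon resonance with Fabs held on an amine-coupled anti-Fab antibody surface, soluble monomeric CD33 domain injected as analyte, double-referenced 1:1 binding fit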
All answers are understood in nM, so give the number only.

Input: Could you share which Kd value was measured for ADI-11807 Fab (Fab, V domains shown, Fab fragment; also called Ab5; I07) VH: EVQLVESGGGLVQPGGSLRLSCAASGFTFGSYWMSWVRQAPGKGLEWVATIKQDGSEKSYVDSVKGRFTISRDNAKNSLYLQMNSLRAEDTAVYYCARPLNAGELDVWGQGTMVTVSS VL: DIQMTQSPSTLSASVGDRVTITCRASQSISSWLAWYQQKPGKAPKLLIYEASSLESGVPSRFSGSGSGTEFTLTISSLQPDDFATYYCQQSQSYPPITFGGGTKVEIK ?
Output: 0.28

Input: Dear colleague, I am looking for the recorded Kd of the following binder: ADI-10161 Fab (Fab, V domains shown, Fab fragment; also called Ab16) VH: EVQLVESGGGLVQPGGSLRLSCAASGFTFSSYWMSWVRQAPGKGLEWVANINQDGSEKYYVDSVKGRFTISRDNAKNSLYLQMNSLRAEDTAVYYCAREGGDSWYHAFDIWGQGTMVTVSS VL: DIQMTQSPSSVSASVGDRVTITCRASQGISSWLAWYQQKPGKAPKLLIYAASNLQSGVPSRFSGSGSGTDFTLTISSLQPEDFATYYCQQKLSLPLTFGGGTKVEIK
Output: 95.8

Input: // returns reported Kd for input ADI-11819 Fab (Fab, V domains shown, Fab fragment; also called Ab8) VH: EVQLVESGGGLVKPGGSLRLSCAASGFTFSSYAMSWVRQAPGKGLEWVSSISSSSEGIYYADSVKGRFTISRDNAKNSLYLQMNSLRAEDTAVYYCAREGGPYYDSSGYFVYYGMDVWGQGTTVTVSS VL: DIQMTQSPSTLSASVGDRVTITCRASNSISSWLAWYQQKPGKAPKLLIYEASSTKSGVPSRFSGSGSGTEFTLTISSLQPDDFATYYCQQYDDLPTFGGGTKVEIK
Output: 0.14

Input: I am curious: what Kd value has been reported for ADI-10177 Fab (Fab, V domains shown, Fab fragment; also called Ab2) VH: EVQLVESGGGLVQPGGSLRLSCAASGFTFSSYWMSWVRQAPGKGLEWVANIKQDGSEKYYVDSVKGRFTISRDNAKNSLYLQMNSLRAEDTAVYYCARPLNAGELDVWGQGTMVTVSS VL: DIQMTQSPSTLSASVGDRVTITCRASQSISSWLAWYQQKPGKAPKLLIYEASSLESGVPSRFSGSGSGTEFTLTISSLQPDDFATYYCQQLESYPLTFGGGTKVEIK ?
Output: 54.8
